- MEASUREMENT_TARGET: M1 muscarinic receptor (Homo sapiens)
- Construct: expressed in transfected cells; host or cells: CHO cells (M1-CHO, under zeocin and G418 selection)
- Sequence (P11229 1-460): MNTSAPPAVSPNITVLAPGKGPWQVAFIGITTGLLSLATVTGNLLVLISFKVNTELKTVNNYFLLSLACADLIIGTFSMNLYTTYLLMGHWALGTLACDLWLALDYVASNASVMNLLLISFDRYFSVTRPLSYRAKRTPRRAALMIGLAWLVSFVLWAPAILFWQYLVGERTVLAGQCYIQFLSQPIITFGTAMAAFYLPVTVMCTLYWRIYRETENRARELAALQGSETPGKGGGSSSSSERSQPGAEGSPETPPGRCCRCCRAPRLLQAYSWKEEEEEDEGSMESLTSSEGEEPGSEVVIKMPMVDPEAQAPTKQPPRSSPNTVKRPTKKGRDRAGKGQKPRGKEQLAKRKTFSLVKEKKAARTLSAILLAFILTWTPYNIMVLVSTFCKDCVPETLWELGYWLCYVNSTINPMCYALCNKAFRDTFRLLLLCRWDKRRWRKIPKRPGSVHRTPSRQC
- ASSAY_EXPLANATION: Functional mobilization of intracellular calcium (FLIPR, Fluo-3), M1-CHO cells
- Format: cell-based
- CONDITION_NOTES: compound nos. 1-454; 100% efficacy is the maximum response obtained with the Carbachol control; read-out: M1 Efficacy
RESULT_TYPE: Emax

Below, each entry is followed by its recorded Emax result.
• CN(C)C(=O)N1CC2(CCN(C3CCN(c4nccs4)CC3)CC2)c2cc(F)ccc21 [compound 447] = 65 to 85%
• O=C(C1CCC1)N1CC2(CCN(C3CC4CCC(C3)N4C(=O)O[C@@H]3CCOC3)CC2)c2cc(F)ccc21 (stereo partly shown) [compound 69] = < 65%
• CC(=O)N1CC2(CCN(C3CC4CCC3C4)CC2)c2cc(C)ccc21 (stereo not shown) [compound 138] = 65 to 85%

### Prompt Endpoint output: Emax of CN(C)C(=O)N1CC2(CCN(C3CCN(c4cccnc4)CC3)CC2)c2cc(F)ccc21 [compound 453] . Value?
### Response 65 to 85%

### Prompt Looking for the measured Emax of CCCC(=O)N1CC2(CCN(C3CCN(C(=O)OCC)CC3)CC2)c2cc(F)ccc21 [compound 324] , can you help?
### Response 65 to 85%

### Prompt // Emax lookup, key: c1ccc2c(c1)NCC21CCN(C2CC3CCC2C3)CC1 (stereo not shown) [compound 272]
### Response 65 to 85%

### Prompt Which value of Emax has been reported for CN(C)C(=O)N1CC2(CCN(C3CC4CCC(C3)N4C(=O)OCCF)CC2)c2cc(F)ccc21 (stereo not shown) [compound 32] in the records?
### Response > 85%

### Prompt # query: Emax of entry CCOC(=O)N1C2CCC1CC(N1CCC3(CC1)CN(S(=O)(=O)c1c(C)noc1C)c1ccc(F)cc13)C2 (stereo not shown) [compound 89]
### Response 65 to 85%

### Prompt Field request: Emax | item: CC(=O)NC1CC2(CCN(C3CCCCCC3)CC2)c2ccccc21 (stereo not shown) [compound 159]
### Response > 85%

### Prompt Query (compound): Clc1ccc2c(c1)C1(CCO2)CCN([C@@H]2C[C@@H]3CC[C@@H]2C3)CC1 [compound 369] ; field requested: Emax
### Response > 85%

### Prompt Which Emax reading was recorded for the compound CCOC(=O)N1CCC(CN2CCC3(CC2)C(=O)Nc2ccccc23)CC1 [compound 319] ?
### Response < 65%

### Prompt Given the entry CCOC(=O)N1CCC(N2CCC3(CC2)CN(C(C)=O)c2ccc(-c4cccc(F)c4)cc23)CC1 [compound 84] , report its measured Emax.
### Response 65 to 85%
